- target-or-system: phosphorylated VEGF-R2Δ50 (FLVK-P) (Homo sapiens, UniProt P35968, DEL940-989/E990V)
- Construct: VEGF-R2Δ50 contains residues 806-939 and 990-1171; made in house; host or cells: baculovirus/insect cells
- Sequence (P35968 with tags, fused parts or gaps DEL940-989/E990V limits assumed): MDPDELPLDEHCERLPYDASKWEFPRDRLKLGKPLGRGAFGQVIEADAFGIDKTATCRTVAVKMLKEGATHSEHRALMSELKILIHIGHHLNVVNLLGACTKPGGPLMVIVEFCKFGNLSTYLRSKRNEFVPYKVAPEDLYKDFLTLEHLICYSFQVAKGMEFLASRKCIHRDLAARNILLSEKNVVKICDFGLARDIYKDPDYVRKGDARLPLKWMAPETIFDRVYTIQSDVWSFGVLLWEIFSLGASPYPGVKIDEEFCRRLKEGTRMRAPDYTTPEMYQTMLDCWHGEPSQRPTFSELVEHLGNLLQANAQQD
- assay-comment: VEGF-R2 coupled spectrophotometric (FLVK-P) assay
- Type: biochemical
- condition-summary: read-out: VEGF % inhibition at 20 μM, 20 μM; combinatorial library compounds

{"compound": "CN(C)c1ccc(Nc2nc(N)c(-c3nc(-c4c(Cl)c(Cl)nc(Cl)c4Cl)cs3)s2)cc1", "inhibition at 20 µM (%)": 35}
{"compound": "CCOC(=O)c1cc(-c2csc(-c3sc(Nc4ccc(C(C)C)cc4)nc3N)n2)on1", "inhibition at 20 µM (%)": 9}
{"compound": "CC(C)c1ccc(Nc2nc(N)c(-c3nc(-c4cc(C(C)(C)C)c(O)c(C(C)(C)C)c4)cs3)s2)cc1", "inhibition at 20 µM (%)": -6}
{"compound": "CCOC(=O)c1cc(-c2csc(-c3sc(Nc4ccc(S(N)(=O)=O)cc4)nc3N)n2)on1", "inhibition at 20 µM (%)": 3}
{"compound": "Nc1nc(Nc2ccc(S(N)(=O)=O)cc2)sc1-c1nc(-c2ccc(F)cc2F)cs1 [drawing 445]", "inhibition at 20 µM (%)": 40}
{"compound": "CC(C)c1ccc(Nc2nc(N)c(-c3nc(-c4ccc5c(c4)OCCO5)cs3)s2)cc1", "inhibition at 20 µM (%)": 14}
{"compound": "CC(C)c1ccc(Nc2nc(N)c(-c3nc(-c4ccc(-c5ccc(Cl)cc5Cl)o4)cs3)s2)cc1", "inhibition at 20 µM (%)": 3}
{"compound": "COc1ccc(-c2csc(-c3sc(Nc4ccc(C(C)C)cc4)nc3N)n2)c(OC)c1", "inhibition at 20 µM (%)": -10}
{"compound": "COc1ccc2nc(-c3ccccc3)c(-c3csc(-c4sc(Nc5ccc(N(C)C)cc5)nc4N)n3)cc2c1", "inhibition at 20 µM (%)": 14}
{"compound": "COc1ccc2nc(-c3ccccc3)c(-c3csc(-c4sc(Nc5ccc(C(C)C)cc5)nc4N)n3)cc2c1", "inhibition at 20 µM (%)": 15}
{"compound": "COc1ccc(-c2csc(-c3sc(Nc4ccc(S(N)(=O)=O)cc4)nc3N)n2)c(OC)c1", "inhibition at 20 µM (%)": 3}
{"compound": "CC(C)c1ccc(Nc2nc(N)c(-c3nc(-c4cc(Br)c(Cl)s4)cs3)s2)cc1", "inhibition at 20 µM (%)": 25}
{"compound": "CCN(CC)c1ccc(-c2csc(-c3sc(Nc4ccc(C(C)C)cc4)nc3N)n2)cc1", "inhibition at 20 µM (%)": 9}
{"compound": "Nc1nc(Nc2ccc(S(N)(=O)=O)cc2)sc1-c1nc(-c2cc(Br)c(Cl)s2)cs1", "inhibition at 20 µM (%)": 6}
{"compound": "Nc1nc(Nc2ccc(S(N)(=O)=O)cc2)sc1-c1nc(-c2cccc(OC(=O)c3ccccc3)c2)cs1", "inhibition at 20 µM (%)": 43}
{"compound": "CN(C)c1ccc(Nc2nc(N)c(-c3nc(-c4ccc(Cl)cc4)cs3)s2)cc1", "inhibition at 20 µM (%)": 10}
{"compound": "Nc1nc(Nc2ccc(S(N)(=O)=O)cc2)sc1-c1nc(-c2cc3cc(Cl)ccc3o2)cs1", "inhibition at 20 µM (%)": -4}
{"compound": "CC(C)c1ccc(Nc2nc(N)c(-c3nc(-c4cccc(OC(=O)c5ccccc5)c4)cs3)s2)cc1", "inhibition at 20 µM (%)": 5}
{"compound": "Cc1c(C)c(C)c(-c2csc(-c3sc(Nc4ccc(N(C)C)cc4)nc3N)n2)c(C)c1C", "inhibition at 20 µM (%)": 33}
{"compound": "CC(=O)Oc1ccccc1-c1csc(-c2sc(Nc3ccc(C(C)C)cc3)nc2N)n1", "inhibition at 20 µM (%)": 14}
{"compound": "CN(C)c1ccc(Nc2nc(N)c(-c3nc(-c4cccc([N+](=O)[O-])c4)cs3)s2)cc1", "inhibition at 20 µM (%)": 6}
{"compound": "CC(C)c1ccc(Nc2nc(N)c(-c3nc(-c4ccc(-c5ccccc5)cc4)cs3)s2)cc1", "inhibition at 20 µM (%)": -9}
{"compound": "CC(C)c1ccc(Nc2nc(N)c(-c3nc(-c4ccc(Cl)c([N+](=O)[O-])c4)cs3)s2)cc1", "inhibition at 20 µM (%)": 7}
{"compound": "CC(C)c1ccc(Nc2nc(N)c(-c3nc(-c4ccc(OC(=O)c5ccccc5)cc4)cs3)s2)cc1", "inhibition at 20 µM (%)": -4}
{"compound": "CC(C)c1ccc(Nc2nc(N)c(-c3nc(-c4cc5cc(Cl)ccc5o4)cs3)s2)cc1", "inhibition at 20 µM (%)": -11}
{"compound": "Nc1nc(Nc2ccc(S(N)(=O)=O)cc2)sc1-c1nc(-c2ccc3oc4ccccc4c3c2)cs1", "inhibition at 20 µM (%)": 18}
{"compound": "CC(C)c1ccc(Nc2nc(N)c(-c3nc(-c4cc(-c5ccc(Cl)c(Cl)c5)no4)cs3)s2)cc1", "inhibition at 20 µM (%)": -5}
{"compound": "CC(=O)Oc1ccccc1-c1csc(-c2sc(Nc3ccc(N(C)C)cc3)nc2N)n1", "inhibition at 20 µM (%)": 24}
{"compound": "COc1ccccc1-c1csc(-c2sc(Nc3ccc(C(C)C)cc3)nc2N)n1", "inhibition at 20 µM (%)": -13}
{"compound": "CC(C)c1ccc(Nc2nc(N)c(-c3nc(-c4cc(-c5ccccc5)no4)cs3)s2)cc1", "inhibition at 20 µM (%)": 13}
{"compound": "CC(C)c1ccc(Nc2nc(N)c(-c3nc(-c4ccc(Cl)cc4Cl)cs3)s2)cc1", "inhibition at 20 µM (%)": 23}
{"compound": "Nc1nc(Nc2ccc(S(N)(=O)=O)cc2)sc1-c1nc(-c2ccc(-c3ccc(Cl)cc3Cl)o2)cs1", "inhibition at 20 µM (%)": -2}
{"compound": "CN(C)c1ccc(Nc2nc(N)c(-c3nc(-c4cc(-c5ccccc5)no4)cs3)s2)cc1", "inhibition at 20 µM (%)": 5}
{"compound": "Nc1nc(Nc2ccc(S(N)(=O)=O)cc2)sc1-c1nc(C2C=C([N+](=O)[O-])C=CC2)cs1 (stereo not drawn)", "inhibition at 20 µM (%)": 30}
{"compound": "COc1ccc(OC)c(-c2csc(-c3sc(Nc4ccc(N(C)C)cc4)nc3N)n2)c1", "inhibition at 20 µM (%)": 13}
{"compound": "CN(C)c1ccc(Nc2nc(N)c(-c3nc(-c4ccc(OC(=O)c5ccccc5)cc4)cs3)s2)cc1", "inhibition at 20 µM (%)": -4}
